Entries annotated with measured refractive index
- procedure.text: refractive index (Na D-line) (dimensionless)
- settings: 298.15 K; 101.33 kPa; Liquid; Standard Abbe refractometry
± gives the expanded uncertainty stated by the source.

[[record]]
molecule_smiles = "Cc1cccc(O)c1"
measured_parameter = "refractive index"
measurement = "1.5395 ± 0.0008"

[[record]]
molecule_smiles = "Cc1ccc(O)cc1"
measured_parameter = "refractive index"
measurement = "1.5391 ± 0.0008"

[[record]]
molecule_smiles = "Cc1ccccc1O"
measured_parameter = "refractive index"
measurement = "1.5467 ± 0.0008"


Now, please, on to the next compound.
Name the recorded refractive index of the item O=[N+]([O-])c1ccccc1 in your answer.
1.55 ± 0.0008
